# study system: IKZF1 (Homo sapiens, UniProt Q13422+Q96SW2)
# Construct: expressed in transfected cells
# Sequence (Q13422 whole entry): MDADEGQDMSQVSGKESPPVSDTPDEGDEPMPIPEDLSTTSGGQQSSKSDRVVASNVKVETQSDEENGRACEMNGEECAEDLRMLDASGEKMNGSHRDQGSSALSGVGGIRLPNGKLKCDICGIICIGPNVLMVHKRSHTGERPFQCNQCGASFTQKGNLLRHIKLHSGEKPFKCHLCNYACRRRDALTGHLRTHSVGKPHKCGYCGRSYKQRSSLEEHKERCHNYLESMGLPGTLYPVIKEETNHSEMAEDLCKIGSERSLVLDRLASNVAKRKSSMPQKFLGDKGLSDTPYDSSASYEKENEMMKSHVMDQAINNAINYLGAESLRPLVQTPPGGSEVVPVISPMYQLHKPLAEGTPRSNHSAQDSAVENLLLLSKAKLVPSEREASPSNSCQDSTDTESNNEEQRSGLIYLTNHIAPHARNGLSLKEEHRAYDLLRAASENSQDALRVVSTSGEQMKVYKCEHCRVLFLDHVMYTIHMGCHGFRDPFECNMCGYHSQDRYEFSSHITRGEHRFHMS
# Sequence (Q96SW2 whole entry): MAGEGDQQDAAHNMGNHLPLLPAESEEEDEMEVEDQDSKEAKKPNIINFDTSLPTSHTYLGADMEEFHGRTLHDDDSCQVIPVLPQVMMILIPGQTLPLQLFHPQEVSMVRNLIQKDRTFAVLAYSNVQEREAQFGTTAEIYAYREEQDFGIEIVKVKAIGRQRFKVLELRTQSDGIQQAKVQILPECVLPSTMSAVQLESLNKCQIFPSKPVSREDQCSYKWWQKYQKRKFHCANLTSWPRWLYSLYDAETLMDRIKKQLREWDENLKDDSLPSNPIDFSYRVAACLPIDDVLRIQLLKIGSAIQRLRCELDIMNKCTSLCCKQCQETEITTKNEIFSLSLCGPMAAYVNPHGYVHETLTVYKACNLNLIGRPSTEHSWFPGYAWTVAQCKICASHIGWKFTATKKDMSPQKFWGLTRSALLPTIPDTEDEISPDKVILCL
# Sequence (Q16531 whole entry partner): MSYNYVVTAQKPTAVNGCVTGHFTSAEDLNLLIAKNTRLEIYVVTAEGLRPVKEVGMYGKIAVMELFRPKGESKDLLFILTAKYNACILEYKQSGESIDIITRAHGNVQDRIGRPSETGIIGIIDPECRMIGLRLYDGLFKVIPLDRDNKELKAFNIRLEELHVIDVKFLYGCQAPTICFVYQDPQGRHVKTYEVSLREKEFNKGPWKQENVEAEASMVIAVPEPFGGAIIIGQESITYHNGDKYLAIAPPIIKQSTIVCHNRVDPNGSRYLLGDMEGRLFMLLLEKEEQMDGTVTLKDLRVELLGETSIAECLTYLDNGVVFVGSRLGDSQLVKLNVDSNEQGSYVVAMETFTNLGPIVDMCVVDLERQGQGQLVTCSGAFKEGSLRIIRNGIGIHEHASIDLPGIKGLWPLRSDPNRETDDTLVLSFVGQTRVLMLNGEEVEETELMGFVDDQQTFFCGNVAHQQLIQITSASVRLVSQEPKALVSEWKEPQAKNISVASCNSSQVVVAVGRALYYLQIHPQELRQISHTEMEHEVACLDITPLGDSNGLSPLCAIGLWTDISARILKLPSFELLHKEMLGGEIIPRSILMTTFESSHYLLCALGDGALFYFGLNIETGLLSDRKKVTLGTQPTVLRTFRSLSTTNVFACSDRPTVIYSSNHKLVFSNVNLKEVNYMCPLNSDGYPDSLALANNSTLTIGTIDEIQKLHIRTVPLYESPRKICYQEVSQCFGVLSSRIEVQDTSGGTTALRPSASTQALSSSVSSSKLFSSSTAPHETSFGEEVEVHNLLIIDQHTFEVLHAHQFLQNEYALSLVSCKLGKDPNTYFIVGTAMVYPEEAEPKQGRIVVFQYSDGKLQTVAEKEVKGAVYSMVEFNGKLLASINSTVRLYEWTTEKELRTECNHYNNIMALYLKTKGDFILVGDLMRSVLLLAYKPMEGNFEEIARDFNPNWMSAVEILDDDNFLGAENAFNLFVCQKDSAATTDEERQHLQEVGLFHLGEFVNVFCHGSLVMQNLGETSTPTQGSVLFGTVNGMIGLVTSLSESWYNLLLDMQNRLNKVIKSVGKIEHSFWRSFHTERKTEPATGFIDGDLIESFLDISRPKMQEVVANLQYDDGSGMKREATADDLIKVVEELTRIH
# assay method text: HEK293 HiBiT in vitro degradation of IKZF1
# Type: cell-based
# assay context: HEK293 HiBiT, 18-24 hr incubation, normalized to DMSO control; read-out: IKZF1 EC50

{"columns": ["compound", "study system", "unit annotation", "limit sign", "DC50"],
 "data": [
  ["O=C1CCC(N2Cc3cc(C[C@H]4CCCC[C@@H]4NC4CCC5(CC5)C4)ccc3C2=O)C(=O)N1 (single isomer, unassigned)", "IKZF1 (Homo sapiens, UniProt Q13422+Q96SW2)", "nM", "=", 43],
  ["O=C1CCC(N2Cc3cc(C[C@H]4CCCC[C@@H]4NC4C5CCC4COC5)ccc3C2=O)C(=O)N1 (some centres unmarked)", "IKZF1 (Homo sapiens, UniProt Q13422+Q96SW2)", "nM", ">", 1000],
  ["CC(C)(C)CCN[C@H]1CCCC[C@@H]1Cc1ccc2c(c1)CN(C1CCC(=O)NC1=O)C2=O (some centres unmarked)", "IKZF1 (Homo sapiens, UniProt Q13422+Q96SW2)", "nM", "=", 68],
  ["CC1(C)OCC(N[C@H]2CCCC[C@@H]2Cc2ccc3c(c2)CN(C2CCC(=O)NC2=O)C3=O)CO1 (some centres unmarked)", "IKZF1 (Homo sapiens, UniProt Q13422+Q96SW2)", "nM", ">", 1000],
  ["C[C@@]1(O)CC[C@H](NC2CCC(F)(F)CC2)[C@@H](Cc2ccc3c(c2)CN(C2CCC(=O)NC2=O)C3=O)C1 (some centres unmarked)", "IKZF1 (Homo sapiens, UniProt Q13422+Q96SW2)", "nM", ">", 500],
  ["CC(N[C@H]1CCCC[C@@H]1Cc1ccc2c(c1)CN(C1CCC(=O)NC1=O)C2=O)C1CCC1 (some centres unmarked) [Example 103]", "IKZF1 (Homo sapiens, UniProt Q13422+Q96SW2)", "nM", ">", 1000],
  ["O=C1CC[C@@H](N2Cc3c(ccc(C[C@H]4OCCC[C@@H]4N[C@H]4CC[C@@H](F)CC4)c3F)C2=O)C(=O)N1 (single isomer, unassigned)", "IKZF1 (Homo sapiens, UniProt Q13422+Q96SW2)", "nM", ">", 1000],
  ["O=C1CCC(N2Cc3cc(C[C@H]4CCCC[C@@H]4NC4CC5CCC5C4)ccc3C2=O)C(=O)N1 (some centres unmarked)", "IKZF1 (Homo sapiens, UniProt Q13422+Q96SW2)", "nM", "=", 66],
  ["COCC1CCC(N[C@H]2CCCO[C@@H]2Cc2ccc3c(c2F)CN(C2CCC(=O)NC2=O)C3=O)CC1 (single isomer, unassigned) [Example 265]", "IKZF1 (Homo sapiens, UniProt Q13422+Q96SW2)", "nM", ">", 1000],
  ["O=C1CCC(N2Cc3c(ccc(C[C@H]4CCCC[C@@H]4NC4CCCCC4)c3F)C2=O)C(=O)N1 (some centres unmarked)", "IKZF1 (Homo sapiens, UniProt Q13422+Q96SW2)", "nM", "=", 101],
  ["O=C1CCC(N2Cc3cc(C[C@H]4CCCC[C@@H]4NCc4cncc(F)c4)ccc3C2=O)C(=O)N1 (some centres unmarked)", "IKZF1 (Homo sapiens, UniProt Q13422+Q96SW2)", "nM", ">", 1000],
  ["O=C1CCC(N2Cc3c(ccc(C[C@H]4OCCC[C@@H]4NCC4CCC(F)(F)CC4)c3F)C2=O)C(=O)N1 (some centres unmarked)", "IKZF1 (Homo sapiens, UniProt Q13422+Q96SW2)", "nM", "=", 45],
  ["O=C1CCC(N2Cc3c(ccc(O[C@H]4CCCC[C@@H]4NC4CCC(F)(F)CC4)c3F)C2=O)C(=O)N1 (some centres unmarked) [Reference Compound B-1, reference compound]", "IKZF1 (Homo sapiens, UniProt Q13422+Q96SW2)", "nM", ">", 1000],
  ["O=C1CCC(N2Cc3cc(C[C@H]4CCCC[C@@H]4NCCc4ccccc4)ccc3C2=O)C(=O)N1 (some centres unmarked)", "IKZF1 (Homo sapiens, UniProt Q13422+Q96SW2)", "nM", "=", 39]
]}
